Just for reference, patent US20060142337A1 is where these values come from.

Target: substance P receptor (Homo sapiens)
Construct: endogenous in cells
Test: Radioligand receptor binding inhibitory activity using receptor from human lymphoblast cells (IM-9)
Conditions: [125I]-BHSP binding, receptor from IM-9 cells, 25 C, 30 min
Where a name gives a salt, the structure may show the parent alone.
Measured IC50 determines class: lo: < 50 pM; mid: ≥ 50 pM and < 90 pM; hi: ≥ 90 pM

Problem: Assign a bin to C[C@@H](O[C@H]1CCN(C(=O)C2CCN(C(=O)Cn3cccn3)CC2)C[C@H]1c1ccccc1)c1cc(C(F)(F)F)cc(C(F)(F)F)c1
Solution: lo

Problem: Assign a bin to C[C@@H](O[C@H]1CCN(C(=O)[C@H]2CC[C@H](NC(=O)c3cccs3)CC2)C[C@H]1c1ccccc1)c1cc(C(F)(F)F)cc(C(F)(F)F)c1
Solution: mid

Problem: Assign a bin to C[C@@H](O[C@H]1CCN(C(=O)C2CCN(C(=O)Cn3cncn3)CC2)C[C@H]1c1ccccc1)c1cc(C(F)(F)F)cc(C(F)(F)F)c1
Solution: lo

Problem: Assign a bin to CC(=O)N[C@H]1CC[C@@H](C(=O)N2CC[C@H](O[C@H](C)c3cc(C(F)(F)F)cc(C(F)(F)F)c3)[C@H](c3ccccc3)C2)CC1
Solution: mid

Problem: Assign a bin to CC(=O)NC1CCN(C(=O)N2CC[C@H](O[C@H](C)c3cc(C(F)(F)F)cc(C(F)(F)F)c3)[C@H](c3ccccc3)C2)CC1
Solution: hi

Problem: Assign a bin to C[C@@H](O[C@H]1CCN(C(=O)C2CCN(C3CCOC3=O)CC2)C[C@H]1c1ccccc1)c1cc(C(F)(F)F)cc(C(F)(F)F)c1 (single isomer, unassigned) [Example 35, hydrochloride]
Solution: lo

Problem: Assign a bin to COC(=O)N[C@H]1CC[C@H](C(=O)N2CC[C@H](O[C@H](C)c3cc(C(F)(F)F)cc(C(F)(F)F)c3)[C@H](c3ccccc3)C2)CC1
Solution: hi

Problem: Assign a bin to C[C@@H](O[C@H]1CCN(C(=O)C2CC(=O)N(C)C(=O)C2)C[C@H]1c1ccccc1)c1cc(C(F)(F)F)cc(C(F)(F)F)c1
Solution: mid

Problem: Assign a bin to CCC(=O)N[C@H]1CC[C@H](C(=O)N2CC[C@H](O[C@H](C)c3cc(C(F)(F)F)cc(C(F)(F)F)c3)[C@H](c3ccccc3)C2)CC1
Solution: lo

Problem: Assign a bin to CC(=O)N1CCC(C(=O)N2CC[C@H](O[C@H](C)c3cc(C(F)(F)F)cc(C(F)(F)F)c3)[C@H](c3ccccc3)C2)CC1
Solution: lo

Problem: Assign a bin to C[C@@H](O[C@H]1CCN(C(=O)CC2NC(=O)NC2=O)C[C@H]1c1ccccc1)c1cc(C(F)(F)F)cc(C(F)(F)F)c1 (stereo partly shown)
Solution: hi

Problem: Assign a bin to C[C@@H](O[C@H]1CCN(C(=O)C2CC(=O)NC(=O)C2)C[C@H]1c1ccccc1)c1cc(C(F)(F)F)cc(C(F)(F)F)c1
Solution: mid

Problem: Assign a bin to CCC(=O)NC1CCN(C(=O)N2CC[C@H](O[C@H](C)c3cc(C(F)(F)F)cc(C(F)(F)F)c3)[C@H](c3ccccc3)C2)CC1
Solution: mid

Problem: Assign a bin to CNC(=O)[C@H]1CC[C@H](C(=O)N2CC[C@H](O[C@H](C)c3cc(C(F)(F)F)cc(C(F)(F)F)c3)[C@H](c3ccccc3)C2)CC1
Solution: hi

Problem: Assign a bin to C[C@@H](O[C@H]1CCN(C(=O)[C@H]2CC[C@H](NC(=O)CCCCCl)CC2)C[C@H]1c1ccccc1)c1cc(C(F)(F)F)cc(C(F)(F)F)c1
Solution: mid

Problem: Assign a bin to C[C@@H](O[C@H]1CCN(C(=O)C2CCN(C3CCOC3=O)CC2)C[C@H]1c1ccccc1)c1cc(C(F)(F)F)cc(C(F)(F)F)c1 (single isomer, unassigned) [Example 34, hydrochloride]
Solution: lo

Problem: Assign a bin to C[C@@H](O[C@H]1CCN(C(=O)[C@H]2CC[C@H](NC(=O)C3CC3)CC2)C[C@H]1c1ccccc1)c1cc(C(F)(F)F)cc(C(F)(F)F)c1
Solution: mid

Problem: Assign a bin to CCCC(=O)N[C@H]1CC[C@H](C(=O)N2CC[C@H](O[C@H](C)c3cc(C(F)(F)F)cc(C(F)(F)F)c3)[C@H](c3ccccc3)C2)CC1
Solution: mid

Problem: Assign a bin to CC(C)NC(=O)N[C@H]1CC[C@H](C(=O)N2CC[C@H](O[C@H](C)c3cc(C(F)(F)F)cc(C(F)(F)F)c3)[C@H](c3ccccc3)C2)CC1
Solution: hi

Problem: Assign a bin to C[C@@H](O[C@H]1CCN(C(=O)[C@H]2CC[C@H](NC(=O)N(C)C)CC2)C[C@H]1c1ccccc1)c1cc(C(F)(F)F)cc(C(F)(F)F)c1
Solution: mid

Problem: Assign a bin to CCNC(=O)N[C@H]1CC[C@H](C(=O)N2CC[C@H](O[C@H](C)c3cc(C(F)(F)F)cc(C(F)(F)F)c3)[C@H](c3ccccc3)C2)CC1
Solution: mid

Problem: Assign a bin to C[C@@H](O[C@H]1CCN(C(=O)C2CCN(C(=O)N3CCNC3=O)CC2)C[C@H]1c1ccccc1)c1cc(C(F)(F)F)cc(C(F)(F)F)c1
Solution: lo

* * *

Target: substance P receptor (Homo sapiens)
Construct: endogenous in cells
Experiment: Radioligand receptor binding inhibitory activity using receptor from human lymphoblast cells (IM-9)
Details: [125I]-BHSP binding, receptor from IM-9 cells, 25 C, 30 min
IC50 strictly under 0.06 nM means TRUE; at 0.06 nM or over means FALSE.

Problem: API: query returns whether the molecule falls strictly under 0.06 nM in IC50. Query: CNC(=O)N[C@H]1CC[C@H](C(=O)N2CC[C@H](O[C@H](C)c3cc(C(F)(F)F)cc(C(F)(F)F)c3)[C@H](c3ccccc3)C2)CC1
Solution: TRUE

Problem: API: query returns whether the molecule falls strictly under 0.06 nM in IC50. Query: C[C@@H](O[C@H]1CCN(C(=O)C2CCN(C(=O)Cn3cnnn3)CC2)C[C@H]1c1ccccc1)c1cc(C(F)(F)F)cc(C(F)(F)F)c1
Solution: TRUE

Problem: API: query returns whether the molecule falls strictly under 0.06 nM in IC50. Query: CC(=O)N[C@H]1CC[C@H](C(=O)N2CC[C@H](O[C@H](C)c3cc(C(F)(F)F)cc(C(F)(F)F)c3)[C@H](c3ccccc3)C2)CC1
Solution: TRUE

Problem: API: query returns whether the molecule falls strictly under 0.06 nM in IC50. Query: CC(=O)N1CCC(NC(=O)N2CC[C@H](O[C@H](C)c3cc(C(F)(F)F)cc(C(F)(F)F)c3)[C@H](c3ccccc3)C2)CC1
Solution: FALSE

Problem: API: query returns whether the molecule falls strictly under 0.06 nM in IC50. Query: C[C@@H](O[C@H]1CCN(C(=O)[C@H]2CC[C@H](NS(C)(=O)=O)CC2)C[C@H]1c1ccccc1)c1cc(C(F)(F)F)cc(C(F)(F)F)c1
Solution: TRUE

Problem: API: query returns whether the molecule falls strictly under 0.06 nM in IC50. Query: C[C@@H](O[C@H]1CCN(C(=O)[C@H]2CC[C@H](NC(=O)CN3CCCCC3=O)CC2)C[C@H]1c1ccccc1)c1cc(C(F)(F)F)cc(C(F)(F)F)c1
Solution: TRUE

* * *

Molecular target: substance P receptor (Homo sapiens, UniProt P25103)
Construct: endogenous in cells
Sequence (P25103 whole entry): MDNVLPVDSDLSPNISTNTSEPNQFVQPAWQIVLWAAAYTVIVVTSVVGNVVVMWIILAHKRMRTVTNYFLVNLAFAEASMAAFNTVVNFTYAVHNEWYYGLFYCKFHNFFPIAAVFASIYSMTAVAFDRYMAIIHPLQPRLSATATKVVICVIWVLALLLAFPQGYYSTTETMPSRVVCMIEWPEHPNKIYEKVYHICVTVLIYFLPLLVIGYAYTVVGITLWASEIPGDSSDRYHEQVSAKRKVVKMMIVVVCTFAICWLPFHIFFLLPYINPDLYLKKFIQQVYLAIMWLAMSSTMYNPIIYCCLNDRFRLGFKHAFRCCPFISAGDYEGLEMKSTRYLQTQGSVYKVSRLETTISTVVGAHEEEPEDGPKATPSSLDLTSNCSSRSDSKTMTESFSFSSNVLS
Assay: Radioligand receptor binding inhibitory activity using receptor from human lymphoblast cells (IM-9)
Conditions: [125I]-BHSP binding, receptor from IM-9 cells, 25 C, 30 min
Exercise: for every item that follows, state its recorded IC50.

Looking up COc1ccc(-n2nnnc2C(F)(F)F)cc1C(C)N[C@H]1CCN(C(=O)CNC(C)=O)C[C@H]1c1ccccc1 (single isomer, unassigned) [Example 85] , I see its IC50 listed as 0.09 nM

Looking up CCC(=O)N1CCC(NC(=O)N2CC[C@H](O[C@H](C)c3cc(C(F)(F)F)cc(C(F)(F)F)c3)[C@H](c3ccccc3)C2)CC1 [Example 72] , I see its IC50 listed as 0.091 nM

Looking up CC(C)C(=O)N[C@H]1CC[C@H](C(=O)N2CC[C@H](O[C@H](C)c3cc(C(F)(F)F)cc(C(F)(F)F)c3)[C@H](c3ccccc3)C2)CC1 [Example 45] , I see its IC50 listed as 0.05 nM
